Molecular target: EGFR WT (Homo sapiens)
Sequence (P00533 25-1210): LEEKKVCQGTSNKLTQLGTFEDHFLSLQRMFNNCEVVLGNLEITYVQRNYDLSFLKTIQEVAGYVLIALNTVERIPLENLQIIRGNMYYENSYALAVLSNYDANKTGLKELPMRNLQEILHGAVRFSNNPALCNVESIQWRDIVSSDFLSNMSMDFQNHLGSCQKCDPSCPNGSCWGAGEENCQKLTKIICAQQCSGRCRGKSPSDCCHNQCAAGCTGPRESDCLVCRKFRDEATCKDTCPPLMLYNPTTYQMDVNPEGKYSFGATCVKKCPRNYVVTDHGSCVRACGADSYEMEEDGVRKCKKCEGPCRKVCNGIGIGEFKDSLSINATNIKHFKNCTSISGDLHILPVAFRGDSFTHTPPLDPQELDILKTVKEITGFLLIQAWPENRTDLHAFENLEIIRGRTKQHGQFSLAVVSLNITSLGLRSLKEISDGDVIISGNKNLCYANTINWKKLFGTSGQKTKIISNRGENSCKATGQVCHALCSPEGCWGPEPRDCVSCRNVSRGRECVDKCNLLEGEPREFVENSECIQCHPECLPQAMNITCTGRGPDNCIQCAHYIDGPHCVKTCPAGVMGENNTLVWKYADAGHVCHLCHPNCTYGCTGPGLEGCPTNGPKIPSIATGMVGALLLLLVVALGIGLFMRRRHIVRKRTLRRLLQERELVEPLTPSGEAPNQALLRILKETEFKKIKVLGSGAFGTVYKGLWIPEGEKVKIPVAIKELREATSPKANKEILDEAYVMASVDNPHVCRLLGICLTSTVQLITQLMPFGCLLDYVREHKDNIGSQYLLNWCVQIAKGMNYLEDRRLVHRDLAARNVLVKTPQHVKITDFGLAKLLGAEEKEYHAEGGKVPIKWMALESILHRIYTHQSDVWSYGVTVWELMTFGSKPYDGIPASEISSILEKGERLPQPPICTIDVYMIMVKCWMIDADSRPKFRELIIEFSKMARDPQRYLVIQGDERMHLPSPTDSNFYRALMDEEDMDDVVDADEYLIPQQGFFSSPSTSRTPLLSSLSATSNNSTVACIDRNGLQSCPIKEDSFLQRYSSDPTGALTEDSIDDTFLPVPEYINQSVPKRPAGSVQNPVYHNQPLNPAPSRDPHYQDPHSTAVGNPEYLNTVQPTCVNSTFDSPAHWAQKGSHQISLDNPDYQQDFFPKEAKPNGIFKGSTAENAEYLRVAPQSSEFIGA
Assay: HTRF cellular assay in human cancer cells A431
Assay type: cell-based
Set-up: expressing WT EGFR, EGFR^L858R or EGFR^L858R/T790M; #CRL-1555 (A431); host or cells: NCI-H2073; A431
Conditions: EGF 25 ng/ml
pIC50: −log10 of the molar value.

molecule: Cc1c(C#Cc2ccc(CN3CCC(CO)CC3)cc2)cc(C(F)F)c2cn(C(C(=O)Nc3nccs3)c3ncn4c3CCC43CC3)nc12 (stereo not shown) [Example 6]
pIC50: 6.24
